Some molecules, each annotated with its measured GI50.
Test system: HOP-62
Test: NCI tumour cell line growth inhibition, 48 h
Active and inactive are the calls of the source. No stated cut-off is given here; in the data, active = GI50 up to about 1.1 µM and inactive = higher.

{"columns": ["Molecule", "Reported property", "Measurement"],
 "data": [
  ["Cc1c(Br)c(Br)c(C)[s+]1[O-]", "GI50", "15.6 µM (inactive)"]
]}

### Prompt Report measured GI50 on HOP-62; entry: Cn1c(=O)c2nc(CSCc3ccccc3)[nH]c2n(C)c1=O
### Response > 100 µM (inactive)

* * *

Test system: SW-620
Test: NCI tumour cell line growth inhibition, 48 h
The source made the active and inactive calls. Cut-off read from the data, not from the text of the source: active = GI50 up to about 1.1 µM and inactive = higher.
Reported property: GI50

Worked examples follow.
{"columns": ["Molecule", "GI50"],
 "data": [
  ["COc1cc(C2c3cc4c(cc3[C@@H](OCCN(C)C)C3COC(=O)[C@H]23)OCO4)cc(OC)c1O (stereo partly specified)", "0.579 µM (active)"],
  ["CC(C)(C)c1cc(COc2c3sc(=S)sc3c(OCc3cc(C(C)(C)C)cc(C(C)(C)C)c3)c3sc(=S)sc23)cc(C(C)(C)C)c1", "> 100 µM (inactive)"],
  ["C=C(C)C1(Sc2ccc(OC)cc2)CC1", "17.4 µM (inactive)"],
  ["Cn1c2c(c3ccccc31)CCN1C(=O)CCC21 (stereo unspecified)", "> 10 µM (inactive)"],
  ["NNc1nncc2[nH]cnc12", "> 100 µM (inactive)"]
]}

### Prompt Report measured GI50 on SW-620; entry: CCc1nnc(S)n1/N=C\c1ccc(-c2ccccc2[N+](=O)[O-])o1
### Response 41.7 µM (inactive)

* * *

System: HL-60
Test: NCI tumour cell line growth inhibition, 48 h
Where a name gives a salt, the structure may show the parent alone. Calls of active or inactive are those of the source. Cut-off read from the data, not from the text of the source: active = GI50 up to about 1.1 µM and inactive = higher.
A correct response names exactly one class from TRUE (active), FALSE (inactive)

Check out these entries, answers already filled in.
{"columns": ["Molecule", "Test target", "Cat"],
 "data": [
  ["CC(C)C(Sc1nc(-c2ccccc2)c(-c2ccccc2)[nH]1)C(=O)N/N=C/c1ccc([N+](=O)[O-])cc1 (centres undefined)", "HL-60", "FALSE"],
  ["NCCCN(CCCN)CCCNCc1c2ccccc2c(CNCCCN(CCCN)CCCN)c2ccccc12", "HL-60", "FALSE"],
  ["O=C1C(O)=C(CN(CCCl)CCCl)C(=O)c2ccccc21", "HL-60", "FALSE"],
  ["O=C(OCCN1CCCCCC1)C(c1ccsc1)C1CCCCC1 (centres undefined) [CETIEDIL CITRATE]", "HL-60", "FALSE"]
]}

### Prompt Please indicate how the test categorized O=[N+]([O-])/C(C(Cl)=C(Cl)Cl)=C1\Nc2ccccc2O1 .
### Response FALSE

### Prompt Please indicate how the test categorized CC(C)OC(=O)c1ccc(CCc2cc(O)c(Br)cc2O)cc1 .
### Response FALSE

### Prompt Please indicate how the test categorized O=c1c2ccccc2sc2cccc(NCCCN3CCN(CCCNc4cccc5sc6ccccc6c(=O)c45)CC3)c12 .
### Response FALSE

### Prompt Please indicate how the test categorized COc1ccc(C2(O)c3ccccc3C(=O)N(C)C2(O)c2ccc(OC)cc2)cc1 (centres undefined) .
### Response FALSE

### Prompt Please indicate how the test categorized COc1cc([C@@H]2c3cc4c(cc3[C@@H](NCc3ccc(C#N)cc3)C3COC(=O)[C@@H]32)OCO4)cc(OC)c1O (some centres undefined) .
### Response TRUE

* * *

System: SW-620
Test: NCI tumour cell line growth inhibition, 48 h
Counter-ions that a name gives are not always drawn. Calls of active or inactive are those of the source. Cut-off read from the data, not from the text of the source: active = GI50 up to about 1.1 µM and inactive = higher.
Some molecules, each annotated with its measured GI50.

Worked examples follow.
{"columns": ["Molecule", "Reported property", "Measurement"],
 "data": [
  ["CC1(C)CC2=C(Sc3ccccc3N2)C(=O)C1C(=O)C(=O)Nc1cc(Cl)ccc1Cl (stereo not given)", "GI50", "> 100 µM (inactive)"],
  ["Cc1nc2c(ccc3ncccc32)[nH]1", "GI50", "> 100 µM (inactive)"],
  ["O=C(OCCN1CCCCCC1)C(c1ccsc1)C1CCCCC1 (stereo not given) [CETIEDIL CITRATE]", "GI50", "16.6 µM (inactive)"],
  ["Cc1cccc(C)c1N1C(=O)C(=O)C(c2nc3ccccc3s2)/C(=N/c2cccc3c(=O)[nH][nH]c(=O)c23)C1=O (stereo not given)", "GI50", "> 100 µM (inactive)"]
]}

Turning to the following molecule.
### Prompt Answer with reported GI50 of Cc1cc(C(=O)CBr)c(CN2C(=O)c3ccccc3C2=O)c(=O)n1C
### Response 3.78 µM (inactive)

* * *

System: HT-29
Test: NCI tumour cell line growth inhibition, 48 h
Calls of active or inactive are those of the source. Rule as the data show it: active = GI50 up to about 1.1 µM and inactive = higher.
Some compounds, each annotated with its measured GI50.

Worked examples follow.
{"columns": ["Compound", "GI50"],
 "data": [
  ["Cc1cccc(C)c1N1C(=O)C(=O)C(c2nc3ccccc3s2)/C(=N/c2cccc3c(=O)[nH][nH]c(=O)c23)C1=O (stereo unspecified)", "> 100 µM (inactive)"],
  ["O=C1C(O)=C(Cl)C(=O)c2c(O)ccc(O)c21", "> 100 µM (inactive)"],
  ["Cc1ccc(NC(=O)C2C(=O)N(c3ccc(C)c(C)c3)C(=O)/C2=N\\NC(N)=S)cc1C (stereo unspecified)", "78 µM (inactive)"],
  ["Oc1cc(-c2ccc(Cl)cc2)nc2ncccc12", "34.9 µM (inactive)"]
]}

### Prompt Report measured GI50 on HT-29; entry: ON=C1CCCCC(=NO)CCCC1
### Response > 100 µM (inactive)

### Prompt Report measured GI50 on HT-29; entry: CC(C)C12Cc3c(ccc4ccccc34)OC1(C)Oc1ccc3ccccc3c1C2 (stereo unspecified)
### Response > 100 µM (inactive)

### Prompt Report measured GI50 on HT-29; entry: c1ccc2c(c1)C1CCCCCC21N1CCOCC1 (stereo unspecified)
### Response 86.3 µM (inactive)

### Prompt Report measured GI50 on HT-29; entry: CCOC(=O)/C=C1\Nc2ccccc2C12CCc1c([nH]c3ccccc13)C2C(=O)OCC (stereo unspecified)
### Response 9.08 µM (inactive)

### Prompt Report measured GI50 on HT-29; entry: CC(=O)c1c(C)cn(S(=O)(=O)NC(=O)Nc2nncs2)c1C
### Response > 100 µM (inactive)

### Prompt Report measured GI50 on HT-29; entry: Oc1cc(-c2cccs2)nc2cc3c(cc12)OCO3
### Response 13.6 µM (inactive)

### Prompt Report measured GI50 on HT-29; entry: O=S(=O)(C1=CC(S(=O)(=O)c2ccccc2)COC1)c1ccccc1 (stereo unspecified)
### Response > 100 µM (inactive)

* * *

Test system: SR
Test: NCI tumour cell line growth inhibition, 48 h
Activity calls are given as the source filed them. No stated cut-off is given here; in the data, active = GI50 up to about 1.1 µM and inactive = higher.
A correct response names exactly one class from true (active), false (inactive)

Check out these entries, answers already filled in.
{"columns": ["Compound", "Cat"],
 "data": [
  ["N#CC(C#N)=CNCCN1CCN(C=C(C#N)C#N)CC1", "false"],
  ["CN1CCN(C)C12C=c1ccccc1=CC21CC1", "false"],
  ["O=C(NCCCCCN1CCC2(CCCCC2)CC1)C(C1CCCCC1)C1CCCCC1", "false"],
  ["COc1cnc2cc(C(=O)O)c3ccccc3c2c1", "false"]
]}

### Prompt Please indicate how the test categorized CC(C)(CCc1nc2ccccc2[nH]1)C(=O)O .
### Response false

### Prompt Please indicate how the test categorized O=C1c2cnccc2Cc2cccc3c2N1c1ccccc1S3 .
### Response false

### Prompt Please indicate how the test categorized COc1ccc(C[C@H]2COC(=O)[C@@H]2Cc2ccc(O)cc2)cc1OC .
### Response false

### Prompt Please indicate how the test categorized O=C(C(Cl)=C(N1CCOCC1)N1CCOCC1)C(Cl)Cl .
### Response false

### Prompt Please indicate how the test categorized Cc1cc2nc3[nH]c4c(Cl)cc(Cl)cc4c3nc2cc1C .
### Response false

### Prompt Please indicate how the test categorized CC(C)C(Sc1nc(-c2ccccc2)c(-c2ccccc2)[nH]1)C(=O)N/N=C/c1ccc([N+](=O)[O-])cc1 (configuration not stated) .
### Response false

### Prompt Please indicate how the test categorized Cc1cc[n+]2c(c1)-c1cc(C)cc[n+]1CC2 .
### Response false

### Prompt Please indicate how the test categorized Cc1ccc(Nc2nc(C)c(C(/C=C/c3ccc(/C=C/C(=N/NC(=O)C[n+]4ccccc4)c4sc(Nc5ccc(C)cc5[N+](=O)[O-])nc4C)cc3)=N\NC(=O)C[n+]3ccccc3)s2)c([N+](=O)[O-])c1 .
### Response false

### Prompt Please indicate how the test categorized CCOC(=O)c1cc(Br)c(-c2onc(C)c2Br)[nH]1 .
### Response false

### Prompt Please indicate how the test categorized CCCCOCCOC1=C(Cl)C(=O)c2c(O)ccc(O)c2C1=O .
### Response true

### Prompt Please indicate how the test categorized O=c1oc2ccccc2cc1-c1nc2ccccc2s1 .
### Response true

### Prompt Please indicate how the test categorized O=C(O)c1nc(-c2ccccn2)c(-c2ccccn2)nc1C(=O)O .
### Response false

### Prompt Please indicate how the test categorized Sc1ccc2ccccc2c1CNCc1ccccc1 .
### Response false

### Prompt Please indicate how the test categorized C[C@]12CCC3[C@@H](C[C@H]4OC(=O)[C@@]35CCC(=O)C=C45)C1CCC2=O (some centres not stated) .
### Response false

### Prompt Please indicate how the test categorized COCN(C)c1nc(N(C)C)nc(N(C)C)n1 .
### Response false

### Prompt Please indicate how the test categorized CCOC(=O)C1C(=O)c2ccccc2CN1Cc1ccccc1 (configuration not stated) .
### Response false

### Prompt Please indicate how the test categorized CC(C)(C)OC(=O)/C=C/C(=O)O/C=C/[N+](=O)[O-] .
### Response false

### Prompt Please indicate how the test categorized Cc1ccc2ccccc2c1CC1S(=O)(=O)OCCOS1(=O)=O .
### Response false
